Listing: Ki of selected compounds
Biological target: UniProt P00742
Sequence (P00742 41-179 limits assumed): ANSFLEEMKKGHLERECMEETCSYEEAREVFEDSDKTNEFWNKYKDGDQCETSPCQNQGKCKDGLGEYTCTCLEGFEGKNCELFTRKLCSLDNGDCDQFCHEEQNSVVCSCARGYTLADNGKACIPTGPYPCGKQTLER
Sequence (P00742 235-488 limits assumed): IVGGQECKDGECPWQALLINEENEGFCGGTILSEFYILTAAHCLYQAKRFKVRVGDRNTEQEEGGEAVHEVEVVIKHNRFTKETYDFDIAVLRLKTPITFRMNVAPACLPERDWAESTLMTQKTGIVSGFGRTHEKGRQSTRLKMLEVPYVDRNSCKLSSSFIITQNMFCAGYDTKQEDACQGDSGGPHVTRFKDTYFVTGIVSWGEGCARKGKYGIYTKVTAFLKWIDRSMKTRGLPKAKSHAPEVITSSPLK
MEASURED_PARAMETER: Ki (µM)

compound=Cc1c(F)c(Oc2cccc(C(=N)N)c2)nc(Oc2cc(C(=O)N(C)C)ccc2O)c1F measured_parameter=Ki unit_of_measurement=µM bound_operator=> test_result=5
compound=Cc1c(F)c(Oc2cccc(C(=O)N(C)C)c2)nc(Oc2cccc(C(=N)N)c2O)c1F measured_parameter=Ki unit_of_measurement=µM bound_operator=> test_result=5
compound=COc1ccc(Oc2nc(Oc3cccc(C(=N)N)c3)c(F)c(C)c2F)cc1C(=O)N(C)C measured_parameter=Ki unit_of_measurement=µM bound_operator== test_result=1.4
compound=Cc1c(F)c(Oc2cccc(N(C)C)c2)nc(Oc2cc(C(=N)N)ccc2N)c1F measured_parameter=Ki unit_of_measurement=µM bound_operator== test_result=0.064
compound=COc1ccc(C(=N)N)cc1Oc1nc(Oc2cccc(N(C)C)c2)c(F)c(C)c1F measured_parameter=Ki unit_of_measurement=µM bound_operator== test_result=1.4
